- Target desc: T1, B7-H3 on CHO-K1 cells stably transfected with B7-H3 (GenScript #M00536) (UniProt Q5ZPR3 29-534, limits assumed)
- T1 sequence (looked up): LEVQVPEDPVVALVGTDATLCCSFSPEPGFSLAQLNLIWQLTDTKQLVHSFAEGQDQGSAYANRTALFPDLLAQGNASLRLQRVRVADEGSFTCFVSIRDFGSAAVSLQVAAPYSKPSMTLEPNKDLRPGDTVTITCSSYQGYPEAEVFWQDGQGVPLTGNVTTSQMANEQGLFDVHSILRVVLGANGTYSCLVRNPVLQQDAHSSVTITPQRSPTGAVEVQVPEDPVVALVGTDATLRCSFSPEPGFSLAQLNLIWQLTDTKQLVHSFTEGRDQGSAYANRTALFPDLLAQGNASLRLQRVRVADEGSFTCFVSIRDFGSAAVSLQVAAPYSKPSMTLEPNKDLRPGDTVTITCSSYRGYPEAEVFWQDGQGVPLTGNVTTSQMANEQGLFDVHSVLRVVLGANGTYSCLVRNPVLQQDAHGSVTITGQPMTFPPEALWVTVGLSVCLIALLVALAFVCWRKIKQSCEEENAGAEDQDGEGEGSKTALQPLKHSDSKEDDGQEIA
- Method notes: cell-based or functional assay
Short version: ADCC reporter assay, Max RLU, CHOK1/B7-H3 cells at least 600000 RLU is rule met, less is rule not met.

// known answers, use as guide
40511p1.1.D6 IgG (antibody, V domains shown) VH: DVQLVESGGGVVRPGESLTLSCAASGFTINSYAVSWVRQAPGEGLEWVSGISGSGVRYYADSVKGRFTISRDNSNNTLYLQMNSLRAEDTAVYYCARSNKVTWNNFFDYWGLGTLVTVSS VL: EVVLTQSPGTLTLSPGERATLSCRASRSILTSLAWYQQKPGQAPRLLIYNTVTRATGIPARFSGSGSGTEFTLTINSLQSEDFAVYYCQQYYDWPPLTFGGGTKVEIK : rule met
40579p1.F7 IgG (antibody, V domains shown) VH: EVQLLESGGGLVQPGGSLRLSCAASGFTFSDYYMSWVRQAPGKGLEWVSGISISYGGNAYYADSVKGRFTVSRDNSKNTLYLQMNSLRAEDTAVYYCGRDRSPYQYRSMDVWGQGTTVTVSS VL: EIVLTQSPGTLSLSPGERATLTCRASQSVGDFLAWYQQKPGQAPRLLIYGASTRAAGIPARFRGSGSGTDFTLTISSLQSEDFAVYYCQQYKNWPPLTFGGGTKVEIK : rule met
40633p1.2.C3 IgG (antibody, V domains shown) VH: EVQLLESGGGLVQPGGSLRLSCAASGFTVSYYGMSWVRQAPGKGLEWVSAIKQDGSEKYYADSVKGRFTISRDNSKNTLYLQMNSLRAEDTAVYYCARHWNDYSNAMNVWEQGTTVTVSS VL: QSVLTQPPSASGTPGQRVTISCSGSNSNVGGNYVSWYQQLPGTAPKLLIYRNSQRPSGVPDRFSGSKSGTSASLAISGLQSEDEAVYYCASWDASLNGWVFGGGTKLTVL : rule not met

Next item in the queue.
Does the reported ADCC reporter assay, Max RLU, CHOK1/B7-H3 cells for 40633p1.1.B3 IgG (antibody, V domains shown) VH: EVQLLESGGGLVQPGGSLRLSCAASGFTVSYYGMSWVRQAPGKGLEWVSAIKQDGSEKYYADSVKGRFTISRDNSKNTLYLQMNSLRAEDTAVYYCARHWNDYSNAMNVWGQGTTVTVSS VL: QSVLTQPPSASGTPGQRVTISCSGSTSNIGRESVYWYQQLPGTAPKLLIYTIDQRPSGVPDRFSGSKSGTSASLAISGLQSEDEADYYCGTWDDSLNAWVFGGGTKLTVL fall at or above the 600000 RLU mark?
rule met

The reported numbers originate from patent US20260008852A1.
